# TGT: GST-LXRβ ligand-binding domain (Homo sapiens)
# Construct: amino acids 156-461; NP009052
# Sequence (P55055 156-460 limits assumed): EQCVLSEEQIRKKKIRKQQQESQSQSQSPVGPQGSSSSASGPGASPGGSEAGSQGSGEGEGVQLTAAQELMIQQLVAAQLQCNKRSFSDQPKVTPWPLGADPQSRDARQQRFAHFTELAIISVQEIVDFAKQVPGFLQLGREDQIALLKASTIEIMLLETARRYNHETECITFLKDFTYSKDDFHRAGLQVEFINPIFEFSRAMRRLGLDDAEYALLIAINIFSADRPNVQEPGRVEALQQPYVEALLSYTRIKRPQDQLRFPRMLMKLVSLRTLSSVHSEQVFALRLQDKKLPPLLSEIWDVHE
# PROTOCOL TEXT: TR-FRETβ activity assay (NCoA3 coactivator peptide recruitment)
# CONDITIONS: 1 μM 24(S)-25-epoxycholesterol prestimulation
pEC50: −log10 of the molar value.
Kindly supply the reported pEC50 values for the records listed here.

Example cases with answers are listed next.
N#Cc1cccc(C#N)c1-c1c(-c2cccc(N3CC(C(=O)O)C3)c2)n(S(=O)(=O)c2ccc(C(F)F)cc2)c2ccc(F)cc12 :: 6.00 to 7.00
Cc1ccc(S(=O)(=O)n2c(-c3cccc(-c4ccc(C(=O)O)nc4C)c3)c(-c3ccsc3C#N)c3cc(F)ccc32)cc1 :: 6.00 to 7.00
CC(O)(C(=O)O)c1ccc(-c2cccc(-c3c(-c4c(C#N)cccc4C#N)c4cc(F)ccc4n3S(=O)(=O)c3ccc(C(F)F)cc3)c2)cc1 (centres unmarked) :: > 7.00

For each of the items listed, what is its pEC50?
1. N#Cc1sccc1-c1c(-c2ccccc2)n(S(=O)(=O)c2cccnc2)c2ccccc12
2. Cc1ccc(S(=O)(=O)n2c(-c3cccc(-c4ccc(C(=O)O)cc4)c3)c(-c3ccsc3C#N)c3cc(F)cc(O)c32)cc1
3. N#Cc1sccc1-c1c(-c2cccs2)n(S(=O)(=O)c2ccc(CCC(=O)O)cc2)c2ccccc12
4. N#Cc1cccc(C#N)c1-c1c(-c2cccc(-c3ccc(C(=O)O)cc3Cl)c2)n(S(=O)(=O)C2CC3CCC2C3)c2ccc(F)cc12 (centres unmarked)
5. COC(=O)CCc1ccc(S(=O)(=O)n2c(-c3cccs3)c(-c3ccsc3C#N)c3ccccc32)cc1
6. Cc1ccc(S(=O)(=O)n2c(-c3cccc(C4CC4C(=O)O)c3)c(-c3ccsc3C#N)c3cccnc32)cc1 (centres unmarked)
7. Cc1ccc(S(=O)(=O)n2c(-c3cccc(C4CC(C(=O)O)C4)c3)c(-c3ccsc3C#N)c3cc(F)ccc32)cc1 (centres unmarked)
8. O=C(O)c1ccc(-c2cccc(-c3c(-c4ncccc4N4CC(O)C4)c4cc(F)ccc4n3S(=O)(=O)c3ccc(C(F)F)cc3)c2)c(Cl)c1

OUT:
["5.00 to 6.00", "6.00 to 7.00", "5.00 to 6.00", "6.00 to 7.00", "6.00 to 7.00", "5.00 to 6.00", "6.00 to 7.00", "5.00 to 6.00"]

For each of the items listed, what is its pEC50?
1. Cc1ccc(S(=O)(=O)n2c(-c3cccc(-c4ccc(C(=O)NO)cc4)c3)c(-c3ccsc3C#N)c3cc(F)ccc32)cc1
2. COc1ccc(S(=O)(=O)n2c(-c3ccccc3)c(C3=C(C#N)CCCC3)c3ccccc32)cc1
3. O=C(O)C1CC1c1cccc(-c2c(-c3c(Cl)cccc3Cl)c3cc(F)ccc3n2S(=O)(=O)c2ccc(C(F)F)cc2)c1 (centres unmarked)

OUT:
6.00 to 7.00
5.00 to 6.00
> 7.00

====

# PROTOCOL TEXT: Pharmacokinetics in mice after single oral dosing (blood/plasma and liver exposure)
# Format: in vivo
# CONDITIONS: 20 mg/kg single oral dose, time point 4 h
# Protocol: The pharmacokinetics of the compounds was assessed in mice after single dosing and oral administrations. Blood/plasma and liver exposure was measured via LC-MS. […]
ASSAY READOUT: liver exposure

Cc1ccc(S(=O)(=O)n2c(-c3cccc(-c4ccc(C(=O)O)cc4)c3)c(-c3ccsc3C#N)c3cc(F)ccc32)cc1C [23/2] :: D (>3 μM)
Cc1ccc(S(=O)(=O)n2c(-c3cccc(-c4ccc(CN5CCN(C)CC5)cc4)c3)c(-c3ccsc3C#N)c3cc(F)ccc32)cc1 [Compound 8] :: D (>3 μM)
Cc1ccc(S(=O)(=O)n2c(-c3cccc(-c4ccc(C(=O)O)cc4)c3)c(-c3ccsc3C#N)c3cc(F)ccc32)cc1 [5/3] :: C (1 μM to ≤3 μM)
N#Cc1sccc1-c1c(-c2cccc(C3CC3C(=O)O)c2)n(S(=O)(=O)c2ccc(Cl)cc2)c2ccc(F)cc12 (centres unmarked) [3/24] :: C (1 μM to ≤3 μM)

====

# TGT: LXRβ (Homo sapiens, UniProt P55055)
# Sequence (P55055 whole entry, the tested form may be a part): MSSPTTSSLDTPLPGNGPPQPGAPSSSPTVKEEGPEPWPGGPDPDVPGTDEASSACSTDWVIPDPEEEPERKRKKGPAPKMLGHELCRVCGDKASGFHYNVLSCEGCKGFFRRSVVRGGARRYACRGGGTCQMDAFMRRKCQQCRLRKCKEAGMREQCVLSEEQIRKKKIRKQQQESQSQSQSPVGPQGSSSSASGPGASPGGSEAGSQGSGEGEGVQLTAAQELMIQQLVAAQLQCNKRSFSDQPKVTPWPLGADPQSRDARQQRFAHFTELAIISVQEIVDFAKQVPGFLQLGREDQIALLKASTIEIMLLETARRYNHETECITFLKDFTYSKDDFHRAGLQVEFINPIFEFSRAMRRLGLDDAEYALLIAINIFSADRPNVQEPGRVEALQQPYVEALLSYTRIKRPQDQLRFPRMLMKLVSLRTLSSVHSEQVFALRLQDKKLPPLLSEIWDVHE
# PROTOCOL TEXT: LXR Gal4 reporter transient transfection assay (mammalian two-hybrid, HEK293), LXRβ
# Assay type: cell-based
# Parameters: LXRβ (amino acids 156-461); expressed in transfected cells; host or cells: HEK293
# CONDITIONS: full length (FL) LXRβ, HEK293; read-out: FL-M2H Gal4β
# Experimental: LXRα and LXRβ activity status was determined via detection of interaction with coactivator and corepressor proteins in mammalian two-hybrid experiments (M2H). […] As cofactors, domains of either the steroid receptor coactivator 1 (SRC1; amino acids 552-887; SEQ ID NO:5) or of the corepressor NCoR (amino acids 1906-2312; NP006302; SEQ ID NO:6) were expressed as fusions to the DNA binding domain of the yeast transcription factor GAL4 (from pCMV-BD; Stratagene). […]
Kindly supply the reported EC50 values for the records listed here.

Example cases with answers are listed next.
Cc1ccc(S(=O)(=O)n2c(-c3cccc(C4CC5(CC(C(=O)O)C5)C4)c3)c(-c3ccsc3C#N)c3cc(F)ccc32)cc1 (stereo not shown) [3/65] :: < 0.1 µM
N#Cc1sccc1-c1c(-c2cccc(-c3ccc(C(=O)O)cc3Cl)c2)n(S(=O)(=O)c2ccc(C(F)F)nc2)c2ccc(F)cc12 [11/57] :: < 0.1 µM
Cc1cccc(C#N)c1-c1c(-c2cccc(-c3ccc(C(=O)O)cc3Cl)c2)n(S(=O)(=O)c2ccc(C(F)F)cc2)c2ccc(F)cc12 [11/36] :: < 0.1 µM
Cc1ccc(S(=O)(=O)n2c(-c3cccc(N4CCC(C)(C(=O)O)CC4)c3)c(-c3ccsc3C#N)c3cc(F)ccc32)cc1 [3/50] :: < 0.1 µM
COc1ccc(S(=O)(=O)n2c(-c3cccc(N4CC(C(=O)O)C4)c3)c(-c3ccsc3C#N)c3cc(F)ccc32)cn1 [5/8] :: 0.1 to 1 µM

For each of the items listed, what is its EC50?
1. Cc1ccc(S(=O)(=O)n2c(-c3cccc(-c4cc(C)c(C(=O)O)cc4Cl)c3)c(-c3ccsc3C#N)c3cc(F)ccc32)cc1 [Compound 12]
2. CN1CC(F)(c2ccccc2-c2c(-c3cccc(-c4ccc(C(=O)O)cc4Cl)c3)n(S(=O)(=O)c3ccc(C(F)F)cc3)c3ccc(F)cc23)C1 [3/62]
3. CN(CCS(=O)(=O)O)C(=O)c1ccc(-c2cccc(-c3c(-c4c(C#N)cccc4C#N)c4cc(F)ccc4n3S(=O)(=O)c3ccc(C(F)F)cc3)c2)c(Cl)c1 [10/2]
4. COC(=O)c1ccc(-c2cccc(-c3c(-c4c(C)cccc4C#N)c4cc(F)ccc4n3S(=O)(=O)c3ccc(C(F)F)cc3)c2)c(Cl)c1 [1/122]

OUT:
["< 0.1 µM", "< 0.1 µM", "< 0.1 µM", "< 0.1 µM"]

For each of the items listed, what is its EC50?
1. CC(C)(O)c1ccc(S(=O)(=O)n2c(-c3cccc(-c4ccc(C(=O)O)cc4Cl)c3)c(-c3ccccc3C#N)c3cc(F)ccc32)cc1 [30/16]
2. Cc1ccc(S(=O)(=O)n2c(-c3cccc(-c4ccc(CN(C)C)cc4)c3)c(-c3ccsc3C#N)c3cc(F)ccc32)cc1 [8/1]
3. N#Cc1cccc(-c2c(-c3cccc(-c4ccc(C(=O)O)cc4Cl)c3)n(S(=O)(=O)c3ccc(C(F)F)cc3)c3ccc(F)cc23)c1 [C11/48]
4. N#Cc1cccc(C#N)c1-c1c(-c2cccc(-c3ccc(C(=O)O)cc3Cl)c2)n(S(=O)(=O)c2ccc(C(F)(F)F)nc2)c2ccc(F)cc12 [11/37]

OUT:
["0.1 to 1 µM", "< 0.1 µM", "< 0.1 µM", "< 0.1 µM"]

====

# TGT: LXRβ (Homo sapiens, UniProt P55055)
# PROTOCOL TEXT: LXR Gal4 reporter transient transfection assay (mammalian two-hybrid, HEK293), LXRβ
# Assay type: cell-based
# Parameters: LXRβ (amino acids 156-461); expressed in transfected cells; host or cells: HEK293
# CONDITIONS: full length (FL) LXRβ, HEK293; read-out: FL-M2H Gal4β
Kindly supply the reported EC50 values for the records listed here.

Example cases with answers are listed next.
Cc1ccc(S(=O)(=O)n2c(-c3cccc(-c4ccc(C(C)(O)C(=O)O)cc4)c3)c(-c3ccsc3C#N)c3cc(F)ccc32)cc1 (centres unmarked) :: < 100 nM
Cc1ccc(S(=O)(=O)n2c(-c3cccc(N4CC(C(=O)O)C4)c3)c(-c3ccsc3C#N)c3cc(C#N)ccc32)cc1 :: 100 to 1000 nM
Cc1ccc(S(=O)(=O)n2c(-c3cccc(C4(C)CC4C(=O)O)c3)c(-c3ccsc3C#N)c3cc(F)ccc32)cc1 (centres unmarked) [3/1] :: 100 to 1000 nM
N#Cc1cccc(C#N)c1-c1c(-c2cccc(-c3ccc(C(=O)NCCS(=O)(=O)O)cc3Cl)c2)n(S(=O)(=O)c2ccc(C(F)F)cc2)c2ccc(F)cc12 :: < 100 nM
N#Cc1cncc(C#N)c1-c1c(-c2cccc(-c3ccc(C(=O)O)cc3Cl)c2)n(S(=O)(=O)c2ccc(C(F)F)cc2)c2ccc(F)cc12 :: < 100 nM
[2H]c1c([2H])c(S(=O)(=O)n2c(-c3cccc(-c4ccc(C(=O)O)cc4Cl)c3)c(-c3ccsc3C#N)c3cc(F)ccc32)c([2H])c([2H])c1C([2H])([2H])[2H] :: < 100 nM

For each of the items listed, what is its EC50?
1. N#Cc1cccc(C#N)c1-c1c(-c2cccc(-c3c(F)c(F)c(C(=O)O)c(F)c3F)c2)n(S(=O)(=O)c2ccc(C(F)F)cc2)c2ccc(F)cc12
2. N#Cc1sccc1-c1c(-c2cccc(C3CC3C(=O)O)c2)n(S(=O)(=O)c2ccc(Cl)cc2)c2ccc(F)cc12 (centres unmarked)
3. Cc1ccc(S(=O)(=O)n2c(-c3cccc(N4CC(C(=O)O)C4)c3)c(-c3ccsc3CCO)c3cc(F)ccc32)cc1

OUT:
1. < 100 nM
2. < 100 nM
3. 100 to 1000 nM

For each of the items listed, what is its EC50?
1. N#Cc1cccc(C#N)c1-c1c(-c2cccc(N3CC(C(=O)O)C3)c2)n(S(=O)(=O)c2ccc(C(F)F)cc2)c2ccc(F)cc12
2. O=C(O)c1ccc(-c2cccc(-c3c(-c4c(Cl)cccc4Cl)c4cc(F)ccc4n3S(=O)(=O)c3ccc(C(F)F)cc3)c2)c(Cl)c1
3. Cc1ccc(S(=O)(=O)n2c(-c3cccc(-c4ccc(C(=O)NCCS(=O)(=O)O)cc4Cl)c3)c(-c3ccsc3C#N)c3cc(F)ccc32)cc1
4. Cc1ccc(S(=O)(=O)n2c(-c3cccc(-c4ccc(C(=O)NO)cc4)c3)c(-c3ccsc3C#N)c3cc(F)ccc32)cc1
5. N#Cc1cccc(C#N)c1-c1c(-c2cccc(-c3cc(F)c(C(=O)O)cc3Cl)c2)n(S(=O)(=O)c2ccc(C(F)F)cc2)c2ccc(F)cc12
6. COCc1sccc1-c1c(-c2cccc(N3CC(C(=O)O)C3)c2)n(S(=O)(=O)c2ccc(C)cc2)c2ccc(F)cc12
7. Cc1ccc(S(=O)(=O)n2c(-c3cccc(N4CC(C(=O)NC(C)(C)C(=O)O)C4)c3)c(-c3ccsc3C#N)c3cc(F)ccc32)cc1

OUT:
1. 100 to 1000 nM
2. < 100 nM
3. 100 to 1000 nM
4. < 100 nM
5. < 100 nM
6. 100 to 1000 nM
7. 100 to 1000 nM

Data origin, for the record: patent US20260083704A1
